- ASSAY METHOD TEXT: chemical genetic growth profiling, strain panel (AID 1159580);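 note: tested at 20 µM; growth read once vehicle control cultures reached saturation at 30 °C; 1 = growth at the plate median or of vehicle wells; lower values mean less growth of the strain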
- EXPERIMENTAL CONTEXT: S. cerevisiae deletion strains, growth OD, locus YLR357W, strain rsc2, hits give low values
The whole screen tested about 5,500 compounds, of which about 2,000 (36%) were called active. Roughly 18% stayed inconclusive and do not appear here. The list shows a part of the results.

| COMPOUND | normalized growth |
| --- | --- |
| CC1(C)C2CC(=O)O[C@@]3(C)C4=CC(=O)O[C@@H](c5ccoc5)[C@]4(C)CCC3[C@@]2(C)C=C[C@H]1O (stereo not given in full) | 1 (inactive) |
| NC(=O)c1cnccn1 | 0.967 (inactive) |
| Nc1nc2c(c(=O)[nH]1)N(C=O)C(CNc1ccc(C(=O)N[C@@H](CCC(=O)O)C(=O)O)cc1)CN2 (stereo not given in full) | 0.928 (inactive) |
| COc1cc2c(cc1O)CC1c3c(cc(O)c(OC)c3-2)CCN1C (stereo not given) | 1.04 (inactive) |
| COc1ccc2c(c1O)-c1c(OC)c(OC)cc3c1[C@H](C2)N(C)CC3 | 1 (inactive) |

Just for reference, PubChem BioAssay AID1159580 is where these values come from.
